These entries and their values trace back to the supplement of paper PMC10567573.

The entries below come with measured protein stability index values attached.
B1: ATE1 (parent)
chain: YGSFHQQYWLDGKIIAVGVIDILP

- Variants of: B1
- PROTOCOL_DESCRIPTION: protein stability index of a GFP-peptide fusion (GPS, HEK-293T) (PSI 1-6); higher = more stable;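 also: lentivirally expressed fusions sorted by FACS into six bins by GFP to DsRed ratio, PSI derived from sequencing read proportions per bin multiplied by bin number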
- COND: c terminus: a fixed tail appended
Form: value (number only, do not type unit).

For orientation, consider the following solved cases.
{"columns": ["MUTATION_ID", "protein stability index"],
 "data": [
  ["I15C", 1.53],
  ["I20C", 1.22],
  ["G12R", 3.98],
  ["G18A", 3.13],
  ["Y8P", 2.93]
]}

Return reported protein stability index; argument: S3R
2.02

Return reported protein stability index; argument: G12K
2.14

Return reported protein stability index; argument: D21W
4.17

Return reported protein stability index; argument: K13R
2

Return reported protein stability index; argument: P24W
3.2

Return reported protein stability index; argument: I14M
4.33
